Recorded values, source BindingDB's records for doi:10.1016/j.bmcl.2005.08.107.

Quick record: pIC50, Coagulation factor X (Homo sapiens).
A value of pIC50 is the negative decimal logarithm of a concentration given in moles per litre.

Cc1cc2cc(N=C(N[C@H]3CCCCN(CC(=O)N4CCCC4)C3=O)C(C#N)C(=O)N3CCC(C)CC3)ccc2o1 (stereo partly drawn) : 7.24

Note: attention shifts to another entry.
Enter reported pIC50 observed with Coagulation factor X (Homo sapiens) for Cc1cc2cc(N=C(N[C@H]3CCCCN(CC(=O)N4CCCC4)C3=O)C(C#N)C(=O)c3ccc(Cl)cc3)ccc2o1 (stereo partly drawn)
Sequence (P00742 41-179 limits assumed): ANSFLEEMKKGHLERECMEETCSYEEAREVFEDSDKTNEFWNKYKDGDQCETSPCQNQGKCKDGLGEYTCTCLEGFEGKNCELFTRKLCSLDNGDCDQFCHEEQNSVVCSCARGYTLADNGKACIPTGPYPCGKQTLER
Sequence (P00742 235-488 limits assumed): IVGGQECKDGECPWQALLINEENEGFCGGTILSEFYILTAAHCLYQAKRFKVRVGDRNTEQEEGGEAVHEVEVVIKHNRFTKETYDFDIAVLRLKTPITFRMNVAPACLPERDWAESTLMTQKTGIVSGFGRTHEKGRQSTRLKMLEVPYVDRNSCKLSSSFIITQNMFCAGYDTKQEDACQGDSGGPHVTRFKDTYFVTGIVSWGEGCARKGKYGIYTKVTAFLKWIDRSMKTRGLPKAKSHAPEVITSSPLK
7.89
